Test system: MV4-11 cells
protocolText: Antiproliferative activity, MTT assay, MV4-11 leukemia cells
Format: cell-based, human
conditionSummary: IC50 BALB/3T3 / IC50 MV4-11
Tag: 1 (yes) if measured Calculated Selectivity Index SI, MV4-11 is not below 2, 0 (no) if it is.

Query: Item C=C(C)[C@@H]1CC[C@]2(COC(=O)CCCC(=O)O)CC[C@]3(C)C(CCC4[C@@]5(C)CC[C@H](O)C(C)(C)C5CC[C@]43C)C12 (some centres unmarked) [compound 4] with Calculated Selectivity Index SI, MV4-11 of 2 or above?
Result: 0 (no)

Query: Item C=C(C)[C@@H]1CC[C@]2(CO)CC[C@]3(C)[C@H](CC[C@@H]4[C@@]5(C)CC[C@H](O)C(C)(C)[C@@H]5CC[C@]43C)[C@@H]12 [Betulin 1, betulin] with Calculated Selectivity Index SI, MV4-11 of 2 or above?
Result: 0 (no)

Query: Item C=C(C)C1CCC2(COC(=O)C=C(C)C(=O)N3CCSCC3)CCC3(C)C(CCC4C5(C)CCC(O)C(C)(C)C5CCC43C)C12 (centres unmarked) [3d] with Calculated Selectivity Index SI, MV4-11 of 2 or above?
Result: 1 (yes)

Query: Item COc1cccc2c1C(=O)c1c(O)c3c(c(O)c1C2=O)C[C@@](O)(C(=O)CO)C[C@@H]3O[C@H]1C[C@H](N)[C@H](O)[C@H](C)O1 [Doxorubicin, doxorubicin, reference compound] with Calculated Selectivity Index SI, MV4-11 of 2 or above?
Result: 1 (yes)

Query: Item C#CCNC(=O)CCC(=O)OC[C@]12CC[C@@H](C(=C)C)C1C1CCC3[C@@]4(C)CC[C@H](O)C(C)(C)C4CC[C@@]3(C)[C@]1(C)CC2 (some centres unmarked) [2a] with Calculated Selectivity Index SI, MV4-11 of 2 or above?
Result: 0 (no)

Query: Item C=C(C)C1CCC2(COC(=O)C=C(C)C(=O)N3CCOCC3)CCC3(C)C(CCC4C5(C)CCC(O)C(C)(C)C5CCC43C)C12 (centres unmarked) [3b] with Calculated Selectivity Index SI, MV4-11 of 2 or above?
Result: 1 (yes)

Query: Item C=C(C)C1CCC2(COC(=O)C=C(C)C(=O)O)CCC3(C)C(CCC4C5(C)CCC(O)C(C)(C)C5CCC43C)C12 (centres unmarked) [compound 3] with Calculated Selectivity Index SI, MV4-11 of 2 or above?
Result: 0 (no)

Query: Item C=C(C)[C@@H]1CC[C@]2(COC(=O)CCCC(=O)N3CCOCC3)CC[C@]3(C)C(CCC4[C@@]5(C)CC[C@H](O)C(C)(C)C5CC[C@]43C)C12 (some centres unmarked) [4b] with Calculated Selectivity Index SI, MV4-11 of 2 or above?
Result: 1 (yes)

Query: Item C=C(C)[C@@H]1CC[C@]2(COC(=O)CCC(=O)N3CCCCC3)CC[C@]3(C)C(CCC4[C@@]5(C)CC[C@H](O)C(C)(C)C5CC[C@]43C)C12 (some centres unmarked) [2c] with Calculated Selectivity Index SI, MV4-11 of 2 or above?
Result: 1 (yes)

Query: Item C#CCNC(=O)CCCC(=O)OC[C@]12CC[C@@H](C(=C)C)C1C1CCC3[C@@]4(C)CC[C@H](O)C(C)(C)C4CC[C@@]3(C)[C@]1(C)CC2 (some centres unmarked) [4a] with Calculated Selectivity Index SI, MV4-11 of 2 or above?
Result: 0 (no)

Query: Item C=C(C)[C@@H]1CC[C@]2(COC(=O)CCC(=O)N3CCSCC3)CC[C@]3(C)C(CCC4[C@@]5(C)CC[C@H](O)C(C)(C)C5CC[C@]43C)C12 (some centres unmarked) [2d] with Calculated Selectivity Index SI, MV4-11 of 2 or above?
Result: 1 (yes)

* * *

Provide the reported log10(IC50 at 72 h) of each item.
protocolText: in vitro
conditionSummary: mouse
Please note: log10 values; quantity IC50 at 72 h; unit µM.

Query: Which log10(IC50 at 72 h) value is on record for C=C(C)[C@@H]1CC[C@]2(COC(=O)CCC(=O)N3CCCCC3)CC[C@]3(C)C(CCC4[C@@]5(C)CC[C@H](O)C(C)(C)C5CC[C@]43C)C12 (some centres unmarked) ?
Result: 1.51

Query: Which log10(IC50 at 72 h) value is on record for C=C(C)C1CCC2(COC(=O)C=C(C)C(=O)N3CCOCC3)CCC3(C)C(CCC4C5(C)CCC(O)C(C)(C)C5CCC43C)C12 (centres unmarked) ?
Result: 1.39

Query: Which log10(IC50 at 72 h) value is on record for C#CCNC(=O)CCCC(=O)OC[C@]12CC[C@@H](C(=C)C)C1C1CCC3[C@@]4(C)CC[C@H](O)C(C)(C)C4CC[C@@]3(C)[C@]1(C)CC2 (some centres unmarked) ?
Result: 0.70

Query: Which log10(IC50 at 72 h) value is on record for C=C(C)[C@@H]1CC[C@]2(COC(=O)CCC(=O)N3CCOCC3)CC[C@]3(C)C(CCC4[C@@]5(C)CC[C@H](O)C(C)(C)C5CC[C@]43C)C12 (some centres unmarked) ?
Result: 1.40

Query: Which log10(IC50 at 72 h) value is on record for C=C(C)C1CCC2(COC(=O)C=C(C)C(=O)O)CCC3(C)C(CCC4C5(C)CCC(O)C(C)(C)C5CCC43C)C12 (centres unmarked) ?
Result: 1.57

Query: Which log10(IC50 at 72 h) value is on record for C#CCNC(=O)CCC(=O)OC[C@]12CC[C@@H](C(=C)C)C1C1CCC3[C@@]4(C)CC[C@H](O)C(C)(C)C4CC[C@@]3(C)[C@]1(C)CC2 (some centres unmarked) ?
Result: 0.49

Query: Which log10(IC50 at 72 h) value is on record for C=C(C)[C@@H]1CC[C@]2(COC(=O)CCCC(=O)O)CC[C@]3(C)C(CCC4[C@@]5(C)CC[C@H](O)C(C)(C)C5CC[C@]43C)C12 (some centres unmarked) ?
Result: 1.58

Query: Which log10(IC50 at 72 h) value is on record for C=C(C)[C@@H]1CC[C@]2(COC(=O)CCCC(=O)N3CCOCC3)CC[C@]3(C)C(CCC4[C@@]5(C)CC[C@H](O)C(C)(C)C5CC[C@]43C)C12 (some centres unmarked) ?
Result: 1.57

* * *

protocolText: Experimental lipophilicity by RP-TLC
conditionSummary: RP-TLC, RP-18 F254S, acetone / Tris buffer pH 7.4, extrapolated to zero acetone
measureName: RM0
Reply with the value as a number alone.

Query: Which RM0 value is on record for C=C(C)C1CCC2(COC(=O)C=C(C)C(=O)N3CCSCC3)CCC3(C)C(CCC4C5(C)CCC(O)C(C)(C)C5CCC43C)C12 (stereo not drawn) ?
Result: 5.711

Query: Which RM0 value is on record for C=C(C)[C@@H]1CC[C@]2(COC(=O)CCCC(=O)N3CCSCC3)CC[C@]3(C)C(CCC4[C@@]5(C)CC[C@H](O)C(C)(C)C5CC[C@]43C)C12 (stereo partly drawn) ?
Result: 5.008

Query: Which RM0 value is on record for C#CC1(NC(=O)c2cccc(C(=O)OC[C@]34CC[C@@H](C(=C)C)C3C3CCC5[C@@]6(C)CC[C@H](O)C(C)(C)C6CC[C@@]5(C)[C@]3(C)CC4)c2)CCCCC1 (stereo partly drawn) ?
Result: 5.746

Query: Which RM0 value is on record for C=C(C)[C@@H]1CC[C@]2(COC(=O)CSCC(=O)O)CC[C@]3(C)C(CCC4[C@@]5(C)CC[C@H](O)C(C)(C)C5CC[C@]43C)C12 (stereo partly drawn) ?
Result: 6.087

Query: Which RM0 value is on record for C#CC1(NC(=O)c2ccccc2C(=O)OC[C@]23CC[C@@H](C(=C)C)C2C2CCC4[C@@]5(C)CC[C@H](O)C(C)(C)C5CC[C@@]4(C)[C@]2(C)CC3)CCCCC1 (stereo partly drawn) ?
Result: 6.412

Query: Which RM0 value is on record for C=C(C)C1CCC2(COC(=O)C=CC(=O)O)CCC3(C)C(CCC4C5(C)CCC(O)C(C)(C)C5CCC43C)C12 (stereo not drawn) ?
Result: 5.129

* * *

protocolText: Experimental lipophilicity by RP-TLC
conditionSummary: RP-TLC, RP-18 F254S, acetone / Tris buffer pH 7.4, extrapolated to zero acetone
measureName: RM0
Reply with the value as a number alone.

Query: Which RM0 value is on record for C[C@]12C=CC(=O)C=C1CC[C@@H]1[C@@H]2C(=O)C[C@@]2(C)[C@H]1CC[C@]2(O)C(=O)CO [prednisone, reference compound] ?
Result: 0.80

Query: Which RM0 value is on record for C=C(C)[C@@H]1CC[C@]2(COC(=O)c3cccc(C(=O)N4CCCCC4)c3)CC[C@]3(C)C(CCC4[C@@]5(C)CC[C@H](O)C(C)(C)C5CC[C@]43C)C12 (stereo partly shown) ?
Result: 5.773

Query: Which RM0 value is on record for CC(=O)Nc1ccccc1 [acetanilide, reference compound] ?
Result: 0.56

Query: Which RM0 value is on record for C=C(C)[C@@H]1CC[C@]2(COC(=O)CCCC(=O)O)CC[C@]3(C)C(CCC4[C@@]5(C)CC[C@H](O)C(C)(C)C5CC[C@]43C)C12 (stereo partly shown) ?
Result: 5.250

FYI, the data here is from paper PMC9820118.
